system: NF-κB activity in HEK293 NF-κB reporter cells; assay: NF-kB activity assay (GFP reporter, ionomycin/PMA); type: cell-based; details: 1 µM, 24 h, n=3
property: Mean NFκB response

compound | Mean NFκB response
Oc1ccc(-c2c(-c3ccccc3)nn3c(C(F)(F)F)cc(C(F)(F)F)nc23)cc1 | 40376.67 GFP+-cells/confluence ∙ 1000
COc1cccc([C@@H](Oc2ccc3c(cnn3-c3ccc(F)cc3)c2)[C@H](C)NC(=O)C(F)(F)F)c1 | 27183.33 GFP+-cells/confluence ∙ 1000
C[C@@H]1Cc2c([nH]c3ccccc23)[C@@H](c2c(F)cc(/C=C/C(=O)O)cc2F)N1CC(C)(C)F | 27738.19 GFP+-cells/confluence ∙ 1000

Asked: Given the compound CC(=O)OCC(=O)[C@@]1(O)CC[C@H]2[C@@H]3CCC4=CC(=O)CC[C@]4(C)[C@@]3(F)[C@@H](O)C[C@@]21C [Fludrocortisone acetate] , what is its reported Mean NFκB response?
Given back: 14315.67 GFP+-cells/confluence ∙ 1000
